# studySystem: Human plasma kallikrein (Homo sapiens, UniProt P03952)
# Sequence (P03952 391-638 limits assumed): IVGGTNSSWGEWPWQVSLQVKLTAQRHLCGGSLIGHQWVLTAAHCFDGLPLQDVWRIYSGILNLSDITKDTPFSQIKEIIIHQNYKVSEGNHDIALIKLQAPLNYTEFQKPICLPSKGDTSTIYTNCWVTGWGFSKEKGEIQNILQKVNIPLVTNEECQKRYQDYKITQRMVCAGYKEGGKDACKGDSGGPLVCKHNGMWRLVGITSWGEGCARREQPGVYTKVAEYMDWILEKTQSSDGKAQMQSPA
# Sequence (P03952 20-390 partner limits assumed): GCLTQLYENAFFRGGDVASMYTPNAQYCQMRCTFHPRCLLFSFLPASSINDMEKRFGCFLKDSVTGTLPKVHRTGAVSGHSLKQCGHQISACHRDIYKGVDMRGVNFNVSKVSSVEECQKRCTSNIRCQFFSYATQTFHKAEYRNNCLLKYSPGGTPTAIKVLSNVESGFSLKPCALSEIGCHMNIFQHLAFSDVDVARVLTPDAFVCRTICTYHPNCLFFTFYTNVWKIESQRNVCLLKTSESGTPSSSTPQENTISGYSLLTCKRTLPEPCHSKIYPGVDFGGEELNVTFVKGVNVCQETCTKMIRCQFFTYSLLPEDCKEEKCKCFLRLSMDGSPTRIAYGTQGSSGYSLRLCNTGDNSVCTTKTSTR
# methodDescription: Ki determination, human plasma kallikrein (H-D-Prolyl-Phe-Arg-pNA)
# condition: 50 mM Tris-HCl, pH 7.8, 200 mM NaCl, 0.05% BSA; read-out: Experimentally Determined Ki, Plasma Kallikrein

# smilesData, studySystem, Ki
rows = [
    ("N=C(N)c1cccc(S(=O)(=O)NCc2ccc(OCCCCCCOc3ccc(CNS(=O)(=O)c4cccc(C(=N)N)c4)cc3)cc2)c1", "Human plasma kallikrein (Homo sapiens, UniProt P03952)", "> 100 µM"),
    ("N=C(N)c1ccc2cc(C(=O)NCc3ccc(OCCOc4ccc(CNC(=O)c5ccc6cc(C(=N)N)ccc6c5)cc4)cc3)ccc2c1", "Human plasma kallikrein (Homo sapiens, UniProt P03952)", "> 100 µM"),
    ("N=C(N)c1ccc(S(=O)(=O)NCc2ccc(OCCCOc3ccc(CNS(=O)(=O)c4ccc(C(=N)N)cc4)cc3)cc2)cc1", "Human plasma kallikrein (Homo sapiens, UniProt P03952)", "> 100 µM"),
]

src = patent US6221914A
